Experiment: Human HepG2 cell viability assay in 384 well format
Type: toxicity, cell-based
Set-up: dose 125 nL, time 70.5 hour; concentration not given beside the values
Conditions: HepG2 cells, read-out: Inhibition
In this section we review reported cytotoxicity at 70.5 h values for a set of compounds.

{"COMPOUND": "CN(C)c1ccc(CN(CC2CCCO2)C(=O)c2csnn2)cc1 (stereo unspecified)", "UNIT_NAME": "%", "cytotoxicity at 70.5 h": -14.8}
{"COMPOUND": "Cc1cc(CN(C)C(=O)C2CCS(=O)(=O)C2)no1 (stereo unspecified)", "UNIT_NAME": "%", "cytotoxicity at 70.5 h": 2.42}
{"COMPOUND": "C[C@H]1C[C@@H]2CCN(C(=O)c3cccn3C)C[C@H]2O1", "UNIT_NAME": "%", "cytotoxicity at 70.5 h": -12.7}
{"COMPOUND": "O=C(NCc1ccncc1)N1CC(Cc2ccccc2F)C1", "UNIT_NAME": "%", "cytotoxicity at 70.5 h": -5.27}
{"COMPOUND": "CCOc1nc2cnccc2n(CC(=O)NCc2ccc(C)cc2)c1=O", "UNIT_NAME": "%", "cytotoxicity at 70.5 h": -9.89}
{"COMPOUND": "Cn1cncc1-c1nnc([C@H]2CCN(C3CCOCC3)C2)o1", "UNIT_NAME": "%", "cytotoxicity at 70.5 h": -3.04}
{"COMPOUND": "Cc1cnccc1CNCc1ccc(OC23CCCN(CC2)C3)cc1 (stereo unspecified)", "UNIT_NAME": "%", "cytotoxicity at 70.5 h": -6.06}
{"COMPOUND": "O=C1CO[C@@H]2CN(CC3CC3)C[C@H]2N1Cc1cccc(F)c1", "UNIT_NAME": "%", "cytotoxicity at 70.5 h": 14.4}
{"COMPOUND": "CC(COc1ccccc1)NCc1nncn1C1CCCCC1 (stereo unspecified)", "UNIT_NAME": "%", "cytotoxicity at 70.5 h": 7.54}
{"COMPOUND": "Cc1ccccc1C(=O)N1CCC2(CC1)CC(c1cnn(C)c1)CO2 (stereo unspecified)", "UNIT_NAME": "%", "cytotoxicity at 70.5 h": -11.9}
{"COMPOUND": "O=C(CC1CC1)NCc1cn2c(n1)CN(C(=O)c1cccnc1)CC2", "UNIT_NAME": "%", "cytotoxicity at 70.5 h": -7.69}
{"COMPOUND": "CC(C)n1nc(CN(C)C)c2c1CN(C(=O)CC1CC1)CC2", "UNIT_NAME": "%", "cytotoxicity at 70.5 h": -4.55}
{"COMPOUND": "CC(NC(N)=O)C(=O)Nc1ccc(OCc2cccc(F)c2)c(F)c1 (stereo unspecified)", "UNIT_NAME": "%", "cytotoxicity at 70.5 h": -10.3}
{"COMPOUND": "CN1CCN2CCN(C(=O)c3cnn4cc(CCO)cnc34)CC2C1 (stereo unspecified)", "UNIT_NAME": "%", "cytotoxicity at 70.5 h": -8.48}
{"COMPOUND": "Cc1ccc(CC(=O)NC2CCN(c3cccc(Cl)c3)C2)cn1 (stereo unspecified)", "UNIT_NAME": "%", "cytotoxicity at 70.5 h": 22.6}
{"COMPOUND": "COCc1ccccc1C(=O)N1CCCC1Cn1nc(C)cc1C (stereo unspecified)", "UNIT_NAME": "%", "cytotoxicity at 70.5 h": 0.418}
{"COMPOUND": "CN1CCCN(S(=O)(=O)c2cccc(C(=O)N3CCCCCC3)c2)CC1", "UNIT_NAME": "%", "cytotoxicity at 70.5 h": -7.86}
{"COMPOUND": "CCCSCC(=O)NS(=O)(=O)c1ccc2c(c1)OCCO2", "UNIT_NAME": "%", "cytotoxicity at 70.5 h": 2.12}
{"COMPOUND": "CCOCC1CN(c2ccncn2)Cc2cnn(CC)c21 (stereo unspecified)", "UNIT_NAME": "%", "cytotoxicity at 70.5 h": -8.6}
{"COMPOUND": "Cc1cccnc1NCCNC(=O)C1CCN(Cc2ccco2)CC1", "UNIT_NAME": "%", "cytotoxicity at 70.5 h": 9.3}
{"COMPOUND": "Cn1c(CCNC(=O)Nc2cn[nH]c2)nc2ccc(F)cc21", "UNIT_NAME": "%", "cytotoxicity at 70.5 h": -1.73}
{"COMPOUND": "COCCN1C[C@H]2CN(Cc3cccc(OC)c3)CCN2C1=O", "UNIT_NAME": "%", "cytotoxicity at 70.5 h": -7.25}
{"COMPOUND": "CCCN1CCN(Cc2cccc(OCC(N)=O)c2)[C@H]2CS(=O)(=O)C[C@H]21", "UNIT_NAME": "%", "cytotoxicity at 70.5 h": 0.755}
{"COMPOUND": "CCOc1ccc(C(=O)NC2CCN(c3ncccn3)CC2)cc1C", "UNIT_NAME": "%", "cytotoxicity at 70.5 h": -0.65}
{"COMPOUND": "Cc1[nH]nc(-c2ccc(F)cc2)c1CC(=O)NCC1CCOCC1", "UNIT_NAME": "%", "cytotoxicity at 70.5 h": -9.72}
{"COMPOUND": "CC(C)S(=O)(=O)CCN1CCc2c(ncn2C2CC2)C1", "UNIT_NAME": "%", "cytotoxicity at 70.5 h": 3.39}
{"COMPOUND": "O=C(Nc1ccc(F)c(F)c1)N1CCC2(CCC(=O)N(C3CC3)C2)CC1", "UNIT_NAME": "%", "cytotoxicity at 70.5 h": -5.15}
{"COMPOUND": "COCC(C)(C#N)NC(=O)c1cn(-c2cccc(Cl)c2F)nn1 (stereo unspecified)", "UNIT_NAME": "%", "cytotoxicity at 70.5 h": -10.4}
{"COMPOUND": "CC(C)Cn1cc(NC(=O)N2CCCC2)cn1", "UNIT_NAME": "%", "cytotoxicity at 70.5 h": 0.273}
{"COMPOUND": "c1ccc(CCNC2CCc3ncnn3C2)nc1 (stereo unspecified)", "UNIT_NAME": "%", "cytotoxicity at 70.5 h": 3.59}
{"COMPOUND": "COC(=O)[C@@H](NC(=O)c1coc(COc2cccc(F)c2F)n1)C(C)C", "UNIT_NAME": "%", "cytotoxicity at 70.5 h": -11.7}
{"COMPOUND": "CCn1nc(C)cc1C(=O)N1C[C@@H](CN(C)C)[C@@H](CO)C1", "UNIT_NAME": "%", "cytotoxicity at 70.5 h": -2.98}
{"COMPOUND": "CC(=O)N1CCN(C(=O)CN2CCCC2c2c(C)nn(C)c2C)CC1 (stereo unspecified)", "UNIT_NAME": "%", "cytotoxicity at 70.5 h": 7.11}
{"COMPOUND": "COC(=O)c1ccc(C2CC(=O)Oc3cc(C)[nH]c(=O)c32)cc1 (stereo unspecified)", "UNIT_NAME": "%", "cytotoxicity at 70.5 h": 4.58}
{"COMPOUND": "CCOCCCNc1nc(CS(=O)(=O)c2ccccc2)cs1", "UNIT_NAME": "%", "cytotoxicity at 70.5 h": -6.56}
{"COMPOUND": "CCC(C)n1cnc(S(=O)(=O)N(C)C)c1 (stereo unspecified)", "UNIT_NAME": "%", "cytotoxicity at 70.5 h": 14.5}
{"COMPOUND": "Cc1ccc2nc(CN(Cc3ccc(C)o3)C(C)C)cc(=O)n2c1", "UNIT_NAME": "%", "cytotoxicity at 70.5 h": -11.5}
{"COMPOUND": "Cc1cc(C)n(-c2cncc(N3CCN(C(=O)CN(C)C)CC3)n2)n1", "UNIT_NAME": "%", "cytotoxicity at 70.5 h": -11.6}
{"COMPOUND": "O=C1CC(N(C(=O)c2ccc(F)c(C(F)(F)F)c2)C2CC2)C(=O)N1 (stereo unspecified)", "UNIT_NAME": "%", "cytotoxicity at 70.5 h": 0.0677}
{"COMPOUND": "CN1CC2(CCCCN2C(=O)c2ccsc2)CC1=O (stereo unspecified)", "UNIT_NAME": "%", "cytotoxicity at 70.5 h": 5.12}
{"COMPOUND": "CCS(=O)(=O)CCN1CCC(N(C)Cc2ncc(C)o2)C1 (stereo unspecified)", "UNIT_NAME": "%", "cytotoxicity at 70.5 h": 0.306}
{"COMPOUND": "CCCN1CCC(c2nc3ccc(-c4ccccc4)cn3n2)CC1", "UNIT_NAME": "%", "cytotoxicity at 70.5 h": -10.7}
{"COMPOUND": "Cc1nonc1C(=O)N1CCc2c(ncn2CCc2ccccc2)C1", "UNIT_NAME": "%", "cytotoxicity at 70.5 h": -7.1}
{"COMPOUND": "Cc1cn2c(n1)CCC(NC(=O)CCCOCc1ccccc1)C2 (stereo unspecified)", "UNIT_NAME": "%", "cytotoxicity at 70.5 h": -12.5}
{"COMPOUND": "Cc1nn(C)c(C)c1CN(C)C1CCN(c2ncnc3[nH]cnc23)CC1", "UNIT_NAME": "%", "cytotoxicity at 70.5 h": 23.7}
{"COMPOUND": "COc1ccc(C(=O)N2C[C@@H](c3ccccc3)[C@@H]3NCCCC[C@@H]32)cc1", "UNIT_NAME": "%", "cytotoxicity at 70.5 h": -8.54}
